The reported measurements were obtained from ChEMBL document CHEMBL3526031.

- PROTOCOL_SUMMARY: Drug metabolism in human intestinal microsomes assessed as formation of scutellarein-6-O-glucuronide after 7 mins by HPLC/UV analysis
- Type: ADME, Intestine, Microsome
MEASUREMENT_TYPE: Km (µM)
Use µM as the unit, but write only the number.

The compound listed as O=c1cc(-c2ccc(O)cc2)oc2cc(O)c(O)c(O)c12 [SCUTELLAREIN] has a reported Km of 7.06

====

- PROTOCOL_SUMMARY: Drug metabolism in human intestinal microsomes assessed as formation of scutellarein-7-O-glucuronide after 7 mins by HPLC/UV analysis
- Assay type: ADME, Intestine, Microsome
- CONDITION_DETAILS: human, microsomes, 7 min
MEASUREMENT_TYPE: Km (µM)
Use µM as the unit, but write only the number.

The compound listed as `O=c1cc(-c2ccc(O)cc2)oc2cc(O)c(O)c(O)c12` has a reported Km of 5.9

====

- EXPERIMENTAL_SYSTEM: Solute carrier organic anion transporter family member 2B1 (Homo sapiens, UniProt O94956)
- Sequence (O94956 whole entry): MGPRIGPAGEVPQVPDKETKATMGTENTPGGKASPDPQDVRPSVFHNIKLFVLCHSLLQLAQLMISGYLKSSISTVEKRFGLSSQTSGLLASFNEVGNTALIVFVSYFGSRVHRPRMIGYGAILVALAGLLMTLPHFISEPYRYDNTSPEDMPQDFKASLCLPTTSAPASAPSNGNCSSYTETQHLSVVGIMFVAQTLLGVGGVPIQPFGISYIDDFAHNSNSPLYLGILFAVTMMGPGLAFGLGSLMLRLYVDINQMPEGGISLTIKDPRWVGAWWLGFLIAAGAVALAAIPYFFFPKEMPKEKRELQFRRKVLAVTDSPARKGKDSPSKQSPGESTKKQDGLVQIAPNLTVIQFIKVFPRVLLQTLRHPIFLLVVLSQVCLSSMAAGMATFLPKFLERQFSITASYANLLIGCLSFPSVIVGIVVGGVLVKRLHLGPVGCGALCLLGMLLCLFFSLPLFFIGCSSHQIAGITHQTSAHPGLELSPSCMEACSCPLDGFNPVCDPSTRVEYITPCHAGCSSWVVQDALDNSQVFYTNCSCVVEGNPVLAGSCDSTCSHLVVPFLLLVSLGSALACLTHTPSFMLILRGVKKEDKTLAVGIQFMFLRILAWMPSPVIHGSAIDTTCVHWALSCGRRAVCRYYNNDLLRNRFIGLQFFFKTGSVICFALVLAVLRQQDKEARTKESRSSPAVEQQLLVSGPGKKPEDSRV
- PROTOCOL_SUMMARY: Drug uptake assessed as OATP2B1 (unknown origin)-mediated drug transport expressed in HEK293 cells after 7 mins by LC-MS/MS analysis
- Format: ADME, cell-based
MEASUREMENT_TYPE: Ki
Write the quantity with the unit trailing the number.

The molecule listed as O=C(O)[C@H]1O[C@@H](Oc2cc3oc(-c4ccc(O)cc4)cc(=O)c3c(O)c2O)[C@H](O)[C@@H](O)[C@@H]1O [SCUTELLARIN] has a reported Ki of 25.9 µM

====

- EXPERIMENTAL_SYSTEM: OATP2B1 (Homo sapiens)
- PROTOCOL_SUMMARY: Drug uptake assessed as OATP2B1 (unknown origin)-mediated drug transport expressed in HEK293 cells by LC-MS/MS analysis relative to control
- Type: ADME, cell-based
- CONDITION_DETAILS: HEK293 cells expressing OATP2B1
Listed next: entries and their corresponding uptake ratio.
Number only, please.

O=C(O)[C@H]1O[C@@H](Oc2c(O)cc3oc(-c4ccc(O)cc4)cc(=O)c3c2O)[C@H](O)[C@@H](O)[C@@H]1O | 20.4

The record that follows has no uptake ratio shown yet.
The compound listed as `O=C(O)[C@H]1O[C@@H](Oc2cc3oc(-c4ccc(O)cc4)cc(=O)c3c(O)c2O)[C@H](O)[C@@H](O)[C@@H]1O` has a reported uptake ratio of 65

====

- EXPERIMENTAL_SYSTEM: OATP2B1 (Homo sapiens, UniProt O94956)
- Sequence (O94956 whole entry): as above
- PROTOCOL_SUMMARY: Drug uptake assessed as OATP2B1 (unknown origin)-mediated drug transport expressed in HEK293 cells after 7 mins by LC-MS/MS analysis
- Format: ADME, cell-based
- CONDITION_DETAILS: human, HEK293 cells expressing OATP2B1
MEASUREMENT_TYPE: Km at 7 min (µM)
Use µM as the unit, but write only the number.

The compound listed as O=C(O)[C@H]1O[C@@H](Oc2cc3oc(-c4ccc(O)cc4)cc(=O)c3c(O)c2O)[C@H](O)[C@@H](O)[C@@H]1O [SCUTELLARIN] has a reported Km at 7 min of 43

====

- Test system: Liver microsome
- PROTOCOL_SUMMARY: Drug metabolism in rat liver microsomes assessed as formation of scutellarein-6,7-diglucuronide after 7 mins by HPLC/UV analysis
- Type: ADME
- CONDITION_DETAILS: rat, microsomes, 7 min
Listed next: entries and their corresponding Km.
Use µM as the unit, but write only the number.

O=C(O)[C@H]1O[C@@H](Oc2cc3oc(-c4ccc(O)cc4)cc(=O)c3c(O)c2O)[C@H](O)[C@@H](O)[C@@H]1O | 15.2

The compound listed as `O=C(O)[C@H]1O[C@@H](Oc2c(O)cc3oc(-c4ccc(O)cc4)cc(=O)c3c2O)[C@H](O)[C@@H](O)[C@@H]1O` has a reported Km of 21.2

====

- PROTOCOL_SUMMARY: Drug metabolism in rat intestinal microsomes assessed as formation of scutellarein-7-O-glucuronide after 7 mins by HPLC/UV analysis
- Type: ADME, Intestine, Microsome
MEASUREMENT_TYPE: Km

The molecule listed as `O=c1cc(-c2ccc(O)cc2)oc2cc(O)c(O)c(O)c12` has a reported Km of 9 µM

====

- PROTOCOL_SUMMARY: Cmax in human at 60 mg, po
- Type: ADME, organism-based
- Design: dose 60 mg, route oral
- CONDITION_DETAILS: in vivo
MEASUREMENT_TYPE: Cmax

The compound listed as `O=C(O)[C@H]1O[C@@H](Oc2cc3oc(-c4ccc(O)cc4)cc(=O)c3c(O)c2O)[C@H](O)[C@@H](O)[C@@H]1O` has a reported Cmax of < 4 nM

====

- EXPERIMENTAL_SYSTEM: UniProt:Q9UNQ0
- Sequence (Q9UNQ0 whole entry): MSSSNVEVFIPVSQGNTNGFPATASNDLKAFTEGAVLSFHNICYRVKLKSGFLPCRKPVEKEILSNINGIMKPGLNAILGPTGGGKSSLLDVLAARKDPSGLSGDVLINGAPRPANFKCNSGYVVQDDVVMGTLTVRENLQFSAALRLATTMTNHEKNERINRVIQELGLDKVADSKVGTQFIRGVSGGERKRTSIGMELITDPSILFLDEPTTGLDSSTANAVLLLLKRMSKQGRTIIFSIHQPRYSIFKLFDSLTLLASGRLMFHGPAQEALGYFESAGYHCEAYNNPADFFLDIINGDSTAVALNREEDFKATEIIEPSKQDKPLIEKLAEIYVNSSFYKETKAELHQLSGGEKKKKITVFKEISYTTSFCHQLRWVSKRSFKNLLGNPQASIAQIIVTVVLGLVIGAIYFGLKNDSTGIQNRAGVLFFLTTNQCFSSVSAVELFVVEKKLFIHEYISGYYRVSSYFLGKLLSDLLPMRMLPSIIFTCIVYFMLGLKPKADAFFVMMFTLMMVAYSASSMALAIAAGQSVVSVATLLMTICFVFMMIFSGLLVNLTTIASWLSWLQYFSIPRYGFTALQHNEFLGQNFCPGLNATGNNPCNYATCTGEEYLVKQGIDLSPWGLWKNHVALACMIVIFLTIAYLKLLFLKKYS
- PROTOCOL_SUMMARY: Inhibition of human BCRP-mediated methotrexate transport using inside-out membrane vesicles by LC-MS/MS analysis
MEASUREMENT_TYPE: IC50 (µM)
Use µM as the unit, but write only the number.

O=C(O)[C@H]1O[C@@H](Oc2cc3oc(-c4ccc(O)cc4)cc(=O)c3c(O)c2O)[C@H](O)[C@@H](O)[C@@H]1O | 10

The record that follows has no IC50 shown yet.
Reported IC50 (UniProt:Q9UNQ0) for entry `O=C(O)[C@H]1O[C@@H](Oc2c(O)cc3oc(-c4ccc(O)cc4)cc(=O)c3c2O)[C@H](O)[C@@H](O)[C@@H]1O` is 20

====

- EXPERIMENTAL_SYSTEM: UDP-glucuronosyltransferase 1A10 (Homo sapiens, UniProt Q9HAW8)
- Sequence (Q9HAW8 whole entry): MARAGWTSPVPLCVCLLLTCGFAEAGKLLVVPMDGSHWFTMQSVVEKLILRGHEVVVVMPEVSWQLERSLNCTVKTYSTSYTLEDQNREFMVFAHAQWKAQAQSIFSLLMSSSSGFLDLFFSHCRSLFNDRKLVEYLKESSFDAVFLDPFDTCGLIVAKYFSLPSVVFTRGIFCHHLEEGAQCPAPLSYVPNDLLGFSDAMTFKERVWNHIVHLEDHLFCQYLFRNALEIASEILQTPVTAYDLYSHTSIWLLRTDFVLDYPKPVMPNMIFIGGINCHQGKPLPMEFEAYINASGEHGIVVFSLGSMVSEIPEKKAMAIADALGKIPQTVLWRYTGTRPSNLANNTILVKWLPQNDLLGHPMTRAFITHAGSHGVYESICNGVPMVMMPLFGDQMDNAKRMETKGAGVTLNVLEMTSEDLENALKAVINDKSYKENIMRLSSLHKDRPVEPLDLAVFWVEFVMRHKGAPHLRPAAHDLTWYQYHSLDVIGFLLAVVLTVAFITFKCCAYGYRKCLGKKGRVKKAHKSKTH
- PROTOCOL_SUMMARY: Drug metabolism assessed as human recombinant UGT1A10-mediated formation of scutellarein-6,7-diglucuronide after 25 mins by HPLC/UV analysis
MEASUREMENT_TYPE: Ki

O=C(O)[C@H]1O[C@@H](Oc2c(O)cc3oc(-c4ccc(O)cc4)cc(=O)c3c2O)[C@H](O)[C@@H](O)[C@@H]1O | 242 µM

The record that follows has no Ki shown yet.
The compound listed as O=C(O)[C@H]1O[C@@H](Oc2cc3oc(-c4ccc(O)cc4)cc(=O)c3c(O)c2O)[C@H](O)[C@@H](O)[C@@H]1O [SCUTELLARIN] has a reported Ki of 208 µM
